System: KB
Experimental details: Cytotoxicity against human KB cells after 4 hrs by MTT assay
Format: functional, cell-based
pIC50: −log10 of the molar value.
Parameter measured: pIC50

Consider the worked cases shown below.
CC[C@H](CC[C@@H](C)[C@H]1CC[C@H]2[C@@H]3CC=C4C[C@@H](O[C@@H]5O[C@H](CO)[C@H](O)[C@H](O[C@@H]6OC[C@@H](O)[C@H](O)[C@H]6O)[C@H]5O[C@@H]5O[C@@H](C)[C@H](O)[C@@H](O)[C@H]5O)CC[C@]4(C)[C@H]3CC[C@]12C)C(C)C: < 4.40
C[C@@H]1O[C@@H](O[C@H]2[C@H](O[C@H]3CC[C@]4(C)[C@H]5CC[C@]6(C)C(=CC[C@@]7(C)CCC(C)(C)C[C@H]76)[C@]5(C)CC[C@H]4C3(C)C)O[C@H](CO)[C@H](O)[C@@H]2O[C@@H]2OC[C@@H](O)[C@H](O)[C@H]2O)[C@H](O)[C@H](O)[C@H]1O: < 4.40

Ask: Give the observed pIC50 of C=C(C)[C@@H]1CC[C@]2(C)CC[C@]3(C)[C@H](CC[C@@H]4[C@@]5(C)CC[C@H](O[C@@H]6O[C@H](CO)[C@H](O)[C@H](O[C@@H]7OC[C@@H](O)[C@H](O)[C@H]7O)[C@H]6O[C@@H]6O[C@@H](C)[C@H](O)[C@@H](O)[C@H]6O)C(C)(C)[C@@H]5CC[C@]43C)[C@@H]12 for KB.
Result: < 4.40
